Data origin, for the record: PubChem BioAssay AID894

system: 15-hydroxyprostaglandin dehydrogenase [NAD(+)] (Homo sapiens) (UniProt P15428)
Sequence (P15428 whole entry, looked up): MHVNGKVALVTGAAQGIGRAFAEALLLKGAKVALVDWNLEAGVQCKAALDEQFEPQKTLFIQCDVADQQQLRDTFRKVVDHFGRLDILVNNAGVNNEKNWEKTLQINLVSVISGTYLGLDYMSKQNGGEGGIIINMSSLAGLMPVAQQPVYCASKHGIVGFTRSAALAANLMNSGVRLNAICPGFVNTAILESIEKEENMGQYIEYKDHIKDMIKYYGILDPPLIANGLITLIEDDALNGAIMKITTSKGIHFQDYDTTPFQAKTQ
method description: qHTS Assay for Inhibitors of HPGD (15-Hydroxyprostaglandin Dehydrogenase); note: % is set by controls: 0 for no effect and ±100 for the full control effect
condition set: purified HPGD, NADH fluorescence kinetic, PGE2 substrate; active compounds read low
About 6,500 (4.3%) of roughly 150,000 compounds were called active. About 12% were inconclusive and are not listed. The sample holds actives, similar compounds and a random draw of the others, so the mix is not that of the screen.
So basically, the class depends on measured activity change, negative = inhibition, and the ranges are 0 = under -20%, 1 = from -20% up to -10%, 2 = -10% and over

Input line: Place this molecule in its band: `O=C(NCc1ccco1)O[C@@H]1C(=O)c2cc(Br)ccc2O[C@H]1c1ccc2c(c1)OCO2`
Output line: 2

Input line: Record `COc1ccc(-c2nc3c(c4c2C[C@H](c2ccccc2)OC4)CN(C(=O)c2ccco2)CC3)c(C)c1` — which class?
Output line: 1

Input line: Form field 'band' for `COc1cc(OC)cc(C(=O)Nc2ccc(S(=O)(=O)Nc3cc(C)on3)cc2)c1`
Output line: 0

Input line: Given `O=C(O)c1cc(Cl)c(Cl)cc1C(=O)Nc1cccc2ncccc12` , name the class its activity change, negative = inhibition places it in.
Output line: 1

Input line: Exercise: read the entry CCC(C)NC(=O)c1cc(Cl)ccc1OC (configuration not stated) and state which class it falls under.
Output line: 1

Input line: Categorize the following entry: `COc1cc(SC)ccc1C(=O)NCCOc1ccccc1Cl`
Output line: 1

Input line: Any idea which band COc1ccc(C2CC(=O)n3c(nc4ccccc43)S2)cc1OC (configuration not stated) is in?
Output line: 1

Input line: Band for the recorded activity change, negative = inhibition of `CN(Cc1ccccc1)C(=O)COc1ccccc1` ?
Output line: 0

Input line: In plain terms, what class is `COCCCNC(=S)NC(=O)c1ccc([N+](=O)[O-])cc1` ?
Output line: 2

Input line: Bin this entry: COc1ccc(C2C(C#N)=C(/N=C/N3CCOCC3)OC3=C2C(=O)CC(C)(C)C3)cc1OC (configuration not stated)
Output line: 1

Input line: Where would `O=c1ccn(Cc2ccccc2Cl)cc1` land among the classes by reported activity change, negative = inhibition?
Output line: 2

Input line: Bin this entry: `CN(Cc1ccccc1)C(=O)CCc1ccccc1`
Output line: 1
